target: CK2A1 (CK2α/β) (Homo sapiens); assay: CK2 kinase assay, CK2A1 (CK2α/β); assay type: biochemical; details: Table A; read-out: CK2A1 (CK2α/β) (IC50)
Sequence (P68400 whole entry, species assumed): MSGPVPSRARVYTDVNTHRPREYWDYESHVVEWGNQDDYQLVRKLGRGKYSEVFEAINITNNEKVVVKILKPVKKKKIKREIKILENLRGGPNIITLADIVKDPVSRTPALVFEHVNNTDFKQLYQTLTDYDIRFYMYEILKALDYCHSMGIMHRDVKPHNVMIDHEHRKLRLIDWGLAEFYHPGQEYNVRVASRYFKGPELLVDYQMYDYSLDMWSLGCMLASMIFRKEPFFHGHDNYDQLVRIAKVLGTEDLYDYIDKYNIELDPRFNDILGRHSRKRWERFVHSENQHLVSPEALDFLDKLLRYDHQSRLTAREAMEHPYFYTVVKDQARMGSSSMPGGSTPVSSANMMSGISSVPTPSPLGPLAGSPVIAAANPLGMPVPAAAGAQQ
Sequence (P67870 whole entry partner, species assumed): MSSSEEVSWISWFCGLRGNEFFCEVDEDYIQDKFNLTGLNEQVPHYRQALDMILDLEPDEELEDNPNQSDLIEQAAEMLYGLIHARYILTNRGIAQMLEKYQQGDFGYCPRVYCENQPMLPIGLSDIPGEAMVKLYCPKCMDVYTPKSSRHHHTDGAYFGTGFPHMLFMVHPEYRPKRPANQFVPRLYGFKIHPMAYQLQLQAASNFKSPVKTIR
pIC50: −log10 of the molar value. Counter-ions that a name gives are not always drawn.
Attribute measured: pIC50

Compound	Attribute measured	Observed
CCNc1nc(Nc2cc(C#N)cc(N3CC[C@@H](N4CC(O)C4)[C@H](O)C3)c2Cl)nn2c(C#N)cnc12 (racemic)	pIC50	8.92
N#Cc1cnc2c(NC3CC3)nc(Nc3cc(C(F)F)cc(N4CCN(C5COC5)CC4)c3Cl)nn12	pIC50	8.89
COC(=O)N[C@H]1CN(c2cc(C#N)cc(Nc3nc(NC4CC4)c4ncc(C#N)n4n3)c2Cl)C[C@H]1OC	pIC50	9.15
CCNc1nc(Nc2cc(C#N)cc(N3CCC(NC(=O)OC)CC3)c2Cl)nn2c(C#N)cnc12	pIC50	9.26
N#Cc1cc(Nc2nc(NC3CC3)c3ncc(C#N)n3n2)c(Cl)c(N2CCC3(CC2)CN(CC(N)=O)C3)c1	pIC50	8.67
CS(=O)(=O)N[C@@H]1CCN(c2cc(C#N)cc(Nc3nc(NC4CC4)c4ncc(C#N)n4n3)c2Cl)C[C@H]1O	pIC50	8.97
Cc1nn(C)c(C)c1-c1cc(C#N)cc(Nc2nc(NC3CC3)c3ncc(C#N)n3n2)c1Cl	pIC50	8.86
CCC(CO)(CO)C(=O)N1CC(N2CCN(c3cc(C#N)cc(Nc4nc(NC5CC5)c5ncc(C#N)n5n4)c3Cl)CC2)C1	pIC50	8.13
N#Cc1cc(Nc2nc(NC3CC3)c3ncc(C#N)n3n2)c(Cl)c(N2CCN(C3CN(C(=O)C4(O)CC4)C3)CC2)c1	pIC50	9.03
CCNc1nc(Nc2cc(C#N)cc(N3CC[C@@H](NC(=O)OC)[C@H](OC(=O)[C@@H](C)OP(=O)(O)O)C3)c2Cl)nn2c(C#N)cnc12	pIC50	9.43
C[C@@H]1CC(CN2CCN(c3cc(C#N)cc(Nc4nc(NC5CC5)c5ncc(C#N)n5n4)c3Cl)CC2)O1 (stereo partly drawn)	pIC50	9.40
CCNc1nc(Nc2cc(C#N)cc(N3CC[C@@H](NC(=O)OC)[C@H](OC(=O)C(C)OP(=O)(O)O)C3)c2Cl)nn2c(C#N)cnc12 (mixture of isomers)	pIC50	9.33
COCCN1CC(N2CCC(c3cc(C#N)cc(Nc4nc(NC5CC5)c5ncc(C#N)n5n4)c3Cl)CC2)C1	pIC50	9.24
N#Cc1cc(Nc2nc(NC3CC3)c3ncc(C#N)n3n2)c(F)cc1OC[C@@H]1COCCN1	pIC50	9.51
N#Cc1cc(Nc2nc(NC3CC3)c3ncc(C#N)n3n2)c(Cl)c(N2CCOC(CO)C2)c1 (racemic)	pIC50	9.70
N#Cc1cc(Nc2nc(NC3CC3)c3ncc(C#N)n3n2)c(Cl)c(N2CCC(NCC(O)CF)CC2)c1 (racemic)	pIC50	8.95
CCNc1nc(Nc2cc(C#N)cc(N3CC[C@@H](NC(=O)OC)[C@H](OC(=O)C[C@@H](N)CC(C)C)C3)c2Cl)nn2c(C#N)cnc12 [Example 819, hydrochloride]	pIC50	8.24
C[C@@H](O)CN1CC(N2CCN(c3cc(C#N)cc(Nc4nc(NC5CC5)c5ncc(C#N)n5n4)c3Cl)CC2)C1	pIC50	8.51
CC1(C(=O)N2CCN(c3cc(C(F)F)cc(Nc4nc(NC5CC5)c5ncc(C#N)n5n4)c3Cl)CC2)COC1	pIC50	8.68
CC(C)(O)CNCC1CN(c2cc(C#N)cc(Nc3nc(NC4CC4)c4ncc(C#N)n4n3)c2Cl)CCO1 (stereo not drawn)	pIC50	8.53
N#Cc1cc(Nc2nc(NC3CC3)c3ncc(C#N)n3n2)c(F)c(N2CCN(CC(O)CF)CC2)c1 (stereo not drawn)	pIC50	8.90
CN1CCN(CC(O)c2cc(C#N)cc(Nc3nc(NC4CC4)c4ncc(C#N)n4n3)c2Cl)CC1 (stereo not drawn)	pIC50	8.89
CN1CCN(c2cc(C#N)cc(Nc3nc(NC4CC4)c4ncc(C#N)n4n3)c2Cl)C(=O)C1	pIC50	8.68
N#Cc1cc(Nc2nc(NC3CC3)c3ncc(C#N)n3n2)c(Cl)c(C2CCN(C3CC4(COC4)C3)CC2)c1	pIC50	8.93
COC(=O)N[C@H]1CCN(c2cc(C#N)cc(Nc3nc(NC4CC4)c4ncc(C#N)n4n3)c2Cl)CC1N(C)C1COC1 (stereo partly drawn)	pIC50	8.87
CC[C@H]1CN(c2cc(C#N)cc(Nc3nc(NC4CC4)c4ncc(C#N)n4n3)c2Cl)CC[C@H]1NC(=O)OC (racemic)	pIC50	9.03
CCNc1nc(Nc2cc(C#N)cc(N3C[C@@H]4C[C@H]3CN4C)c2Cl)nn2c(C#N)cnc12	pIC50	9.19
